List of % Active Ester Remaining values.
assay: Comparative active ester reactivity study with HOA nucleophile (N-hydroxy-N-methylbenzamide); settings: N-Hydroxy-N-methylbenzamide 1 eq., 15 min, 22±2° C.
Please don't drop the unit; write it after the number.

O=C(CCc1cccnc1)Oc1c(Cl)cccc1Cl [Compound A]; 99.57%
O=C(CCc1cccnc1)ON1C(=O)CCC1=O [Compound E]; 32.07%
O=C(CCc1cccnc1)Oc1c(F)c(F)cc(F)c1F [Compound C]; 81.12%
O=C(CCc1cccnc1)Oc1ccc([N+](=O)[O-])cc1 [Compound D, 4-Nitrophenyl-3-(pyridin-3-yl)propanoate]; 95.63%

// next entry
Returns the measured % Active Ester Remaining for the input compound. Input: O=C(CCc1cccnc1)Oc1c(F)cccc1F [Compound B] 91.32%
